assay.summary: Stat Signaling Pathway (AID 446);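 further: ME-180 cervical cancer cells given 40 pM IL-6 alongside compound; SIE-controlled beta-lactamase reporter measured as 460/530 nm FRET emission ratio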
measurement.context: ME-180 (cervical carcinoma) SIE beta-lactamase reporter, IL-6 stimulated, 5 h; at 17.2 µM (top of the series) unless noted
Inconclusive results are not listed. Activity calls are given as the source filed them. The call rests on the fitted dose curve; in most records, active means well fitted curve in either direction with a large enough effect (not every such curve was filed as active); inconclusive means small, poorly fitted or top-dose-only effect, or another doubt; inactive means flat fitted curve, though single readings scatter.
Choose one outcome from this list and give only that: class 1 = active, class 0 = inactive

// return assay outcome for Cc1cccc(N2CC(=O)N(c3cccc(C)c3)CC2=O)c1
class 0

// return assay outcome for CCOC(=O)C1=Nc2ccccc2C1=[N+]=[N-]
class 0

// return assay outcome for Cc1ccc(C(=O)/C=C/Nc2ccccn2)cc1
class 0

// return assay outcome for Cn1c(N)c(C#N)c(C#N)c1-c1ccccc1
class 0

----------
assay.summary: S16 Schwann cell PMP22 intronic element beta-lactamase assay (AID 624044); further: nearly all actives have a fitted effect of over 15% in size
measurement.context: S16 rat Schwann cells, PMP22 element beta-lactamase FRET, 24 h
Inconclusive results are not listed. Active and inactive are the calls of the source. Calls follow the shape of the full dose curve.
Choose one outcome from this list and give only that: active, inactive

A selection of reference data follows.
CC(=O)NC1[C@H]([C@H](O)[C@H](O)CO)OC(C(=O)O)=C[C@H]1N=C(N)N (some centres undefined) :: inactive
CC[C@@]1(O)C[C@H](O[C@H]2C[C@@H](N(C)C)[C@@H](O[C@H]3C[C@@H](O)[C@@H](O[C@H]4CCC(=O)[C@@H](C)O4)[C@@H](C)O3)[C@@H](C)O2)c2c(cc3c(c2O)C(=O)c2c(O)cccc2C3=O)[C@H]1C(=O)OC :: active
Nc1nc(/C(=C/CC(=O)O)C(=O)NC2C(=O)N3C(C(=O)O)=CCSC23)cs1 (centres undefined) :: inactive

// return assay outcome for CO[C@H]1C[C@@H]2CC[C@@H](C)[C@@](O)(O2)C(=O)C(=O)N2CCCC[C@H]2C(=O)O[C@H]([C@H](C)C[C@@H]2CC[C@@H](O)[C@H](OC)C2)CC(=O)[C@H](C)/C=C(\C)[C@@H](O)[C@@H](OC)C(=O)[C@H](C)C[C@H](C)/C=C/C=C/C=C/1C
inactive

// return assay outcome for C/C=C\C[C@H](C)[C@H](O)[C@H]1C(=O)N[C@@H](CC)C(=O)N(C)CC(=O)N(C)[C@@H](CC(C)C)C(=O)N[C@@H](C(C)C)C(=O)N(C)[C@@H](CC(C)C)C(=O)N[C@@H](C)C(=O)N[C@@H](C)C(=O)N(C)[C@@H](CC(C)C)C(=O)N(C)[C@@H](CC(C)C)C(=O)N(C)[C@@H](C(C)C)C(=O)N1C
inactive

// return assay outcome for Cc1ccc(Nc2ncccc2C(=O)O)cc1C
inactive

// return assay outcome for C[C@]12CC[C@@H]3c4ccc(O)cc4CC[C@H]3[C@@H]1CCC2OC(=O)CCC1CCCC1 (some centres undefined)
inactive

// return assay outcome for CC1OC(OCC2OC(Oc3c(-c4ccc(OCCO)c(OCCO)c4)oc4cc(OCCO)cc(O)c4c3=O)C(O)C(O)C2O)[C@@H](O)C(O)C1O (some centres undefined)
inactive

Source listed as PubChem BioAssay (NCATS).
